# if measured logP < 1: 1  # else: -1

Examples from the recorded data:
compound | label.value
OC(CN1C2CCCCC21)Cn1ccnc1 (stereo not drawn) | -1
COC(=O)C1=C(C)NC(C)=C(C(=O)O[C@@H]2CCCN(Cc3ccccc3)C2)[C@@H]1c1cccc([N+](=O)[O-])c1 | -1

Query: Item CC(=O)OCN1C(=O)C2CC=CCC2C1=O (stereo not drawn) : logP beneath 1, strictly?
Result: 1

Query: Item CCOC(=O)CCn1nnc2ccccc21 : logP beneath 1, strictly?
Result: -1

Query: Item Cc1cn(C2OC(CO)CC2F)c(=O)[nH]c1=O (stereo not drawn) : logP beneath 1, strictly?
Result: 1

Query: Item CC1=NS(=O)(=O)c2cnccc2N1 : logP beneath 1, strictly?
Result: 1

Query: Item CSc1ccc2oc(N(N)CCC#N)nc2c1 : logP beneath 1, strictly?
Result: -1

Query: Item Clc1cc2c(Cl)cc(Cl)c(Cl)c2c(Cl)c1Cl : logP beneath 1, strictly?
Result: -1

Query: Item CC(O)C#N (stereo not drawn) : logP beneath 1, strictly?
Result: 1

Query: Item O=C(O)COc1cccc2ccccc12 : logP beneath 1, strictly?
Result: -1

Query: Item CNc1nc(C)nc(C(Cl)(Cl)Cl)n1 : logP beneath 1, strictly?
Result: -1

Query: Item OCc1c(F)cccc1F : logP beneath 1, strictly?
Result: -1

Query: Item CCCOC(=O)[C@@H](N)Cc1ccc(O)c(O)c1 : logP beneath 1, strictly?
Result: 1

====

# if measured logP < 2: rule met  # else: rule not met

Examples from the recorded data:
compound | label.value
O=C(Nc1ccccc1)n1cc(F)c(=O)[nH]c1=O | rule met
O=C(O)CC[Se]Cc1ccccc1 | rule met
C[Si](C)(C)O[Si](C)(C)O[Si](C)(C)O[Si](C)(C)C | rule not met
CSc1ccc(C=C(C#N)C#N)o1 | rule not met
CCCCCCCCCC(C)=O | rule not met

Query: Item CC(C(=O)O)c1ccc2oc(-c3ccc(Cl)cc3)nc2c1 (centres undefined) : logP beneath 2, strictly?
Result: rule not met

Query: Item CCCOC(=O)c1ccccc1O : logP beneath 2, strictly?
Result: rule not met

Query: Item CCOC(=O)c1ccccc1S(=O)(=O)NC(=O)Nc1nc(Cl)cc(OC)n1 : logP beneath 2, strictly?
Result: rule not met

Query: Item Cc1cc(C)nc(NC(=O)NS(=O)(=O)c2ccccc2C(=O)OC2COC2)n1 : logP beneath 2, strictly?
Result: rule met

====

# if measured logP < 3: yes (1)  # else: no (0)

Examples from the recorded data:
smiles.representation | label.value
Brc1cc(Br)c(Oc2cc(Br)c(Br)c(Br)c2)cc1Br | no (0)
O=C(O)CNC(=O)c1ccccc1I | yes (1)
Cc1c(Cl)ccc(Cc2ccc(Cl)cc2Cl)c1Cl | no (0)
O=CNc1nc(-c2ccc([N+](=O)[O-])o2)cs1 | yes (1)
Brc1cc2oc3cc(Br)c(Br)cc3c2cc1Br | no (0)

Please find the next compound below.
Query: Item CC(=O)NCCc1ccccc1 : logP beneath 3, strictly?
Result: yes (1)

====

value.kind: logP
Please respond with just the number, no unit label.

Reference set (5 entries):
compound | result
CC(=O)N[C@@H](C)C(=O)N[C@@H](C)C(N)=O | -2
Clc1cc2c(Cl)c(Cl)c(Cl)c(Cl)c2c(Cl)c1Cl | 8.2
O=C(OCc1ccccc1)c1cccnc1 | 2.4
Cc1ccc(C=C(C#N)C#N)o1 | 2.03
ClC1=C(Cl)C2(Cl)C3CC=CC3C1(Cl)C2(Cl)Cl (stereo not drawn) | 5.57

Query: Quickly give me recorded logP for COc1ccc(Oc2ccc(NC(=O)N(C)C)cc2)cc1
Result: 2.54

Query: Quickly give me recorded logP for CCCN(CCC)C1COc2c(O)cccc2C1 (stereo not drawn)
Result: 3.3

Query: Quickly give me recorded logP for CC(C)(C#N)Nc1nc(Cl)nc(NC2CC2)n1
Result: 1.99

Query: Quickly give me recorded logP for CN1C(=O)CC(=O)N(c2ccccc2)c2cc(Cl)ccc21
Result: 2.12

Query: Quickly give me recorded logP for CC(N)CCc1ccccc1 (stereo not drawn)
Result: 2.12

Query: Quickly give me recorded logP for Fc1ccc(Cn2cncn2)cc1
Result: 1.1

Query: Quickly give me recorded logP for CC(=O)c1cc2c(cc1C)C(C)(C)C(C)CC2(C)C (stereo not drawn)
Result: 5.7

Query: Quickly give me recorded logP for CCC(C)C(NC(=O)c1cn(CC)c2nc(C)ccc2c1=O)C(=O)OC (stereo not drawn)
Result: 3.15
